The measured values listed here are drawn from the supplement of paper PMC7125110.

B1: glmS ribozyme (parent)
chain: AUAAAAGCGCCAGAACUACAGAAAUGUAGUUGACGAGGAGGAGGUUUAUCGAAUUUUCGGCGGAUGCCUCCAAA

Variants of: B1
Test: self-cleavage kobs at 640 uM GlcN6P; higher = faster cleavage; RNA array
Conditions: with glucosamine-6-phosphate
Variants at the floor of the assay were thinned out.
Is self-cleavage kobs at 640 uM GlcN6P at least 0.0004 s⁻¹? Then criterion met. If not, criterion not met.

IN: Is the recorded value of self-cleavage kobs at 640 uM GlcN6P equal to or greater than 0.0004 s⁻¹ for this variant? C11G A14U G35U C70G
OUT: criterion met

IN: Now give it for C11G A14U A52U C68G too.
OUT: criterion not met

IN: Now give it for G13C U31A G40U too.
OUT: criterion not met

IN: Now give it for C8A C10G A15G C16G C50A G63U too.
OUT: criterion not met

IN: Now give it for C34G A36G C71U too.
OUT: criterion not met

IN: Now give it for G35A A53G G60C too.
OUT: criterion not met

IN: Now give it for G9U U54C too.
OUT: criterion not met

IN: Now give it for U56A C67U too.
OUT: criterion met

IN: Now give it for C11U G44U C70G too.
OUT: criterion not met

IN: Now give it for C10U C16A A52U too.
OUT: criterion not met

IN: Now give it for A6G G38A C50G too.
OUT: criterion not met

IN: Now give it for G29A U31A too.
OUT: criterion met

IN: Now give it for A39U A42U U55G G66U too.
OUT: criterion not met

IN: Now give it for G38A U57A too.
OUT: criterion not met

IN: Now give it for C10A U30G A48U too.
OUT: criterion not met

IN: Now give it for C11U A52G too.
OUT: criterion not met

IN: Now give it for G38U A42U G62U too.
OUT: criterion not met

IN: Now give it for A6G G41A G43C C50G C61U too.
OUT: criterion not met

IN: Now give it for C11U G41C C67U too.
OUT: criterion not met

IN: Now give it for A39C C61U C71U too.
OUT: criterion not met

IN: Now give it for A36U C70A too.
OUT: criterion not met

IN: Now give it for A15U C50G C71G too.
OUT: criterion not met

IN: Now give it for A6C C10G too.
OUT: criterion not met

IN: Now give it for G37U G44A A52U A53U too.
OUT: criterion not met

IN: Now give it for U47C C67U too.
OUT: criterion not met

IN: Now give it for A14G U31A too.
OUT: criterion met

IN: Now give it for A52C A53C U55C C67G too.
OUT: criterion not met

IN: Now give it for C10G G35A A42C too.
OUT: criterion not met

IN: Now give it for G35U G38U C67A too.
OUT: criterion not met

IN: Now give it for C16A C34G C68G too.
OUT: criterion not met

IN: Now give it for A12C A53G too.
OUT: criterion met

IN: Now give it for A6U A14G A15U U31G U55G too.
OUT: criterion not met

IN: Now give it for G32U C71U too.
OUT: criterion not met

IN: Now give it for A12U A15C too.
OUT: criterion met

IN: Now give it for G40C A42G too.
OUT: criterion met

IN: Now give it for G41U C70U too.
OUT: criterion met

IN: Now give it for G59A G60U C61A too.
OUT: criterion not met

IN: Now give it for G13C A33C too.
OUT: criterion not met

IN: Now give it for U47C C61U too.
OUT: criterion not met

IN: Now give it for A15U C16A A52U A53C too.
OUT: criterion not met

IN: Now give it for C10G G32C A48U C61G too.
OUT: criterion not met

IN: Now give it for C11G C50G too.
OUT: criterion not met

IN: Now give it for A15C G43A too.
OUT: criterion not met

IN: Now give it for U46A U56C C68A too.
OUT: criterion not met

IN: Now give it for U54C C70G too.
OUT: criterion not met
